# test_method_notes: Steady state PK in rat CIA model
# Type: in vivo
# run_conditions: plasma, PO 0.3 mg/kg/day
quantity: Tmax (h)
Numeric only. Scale: h

[Q] Please give the measured Tmax for this compound: O=C(Nc1nc2cccc(-c3ccc(CN4CCS(=O)(=O)CC4)cc3)n2n1)C1CC1
[A] 1

These measurements were taken from patent US8563545B2.
